# System: human CETP mRNA
# Assay Protocol: Antisense inhibition of human CETP mRNA in primary hepatocytes from huCETP transgenic mice (Example 4)
# Assay type: cell-based, mouse
# Experimental Conditions: 200 nM, cytofectin, ~24 hours
Strand notation (5' to 3'): a small letter for the sugar, then the base; units joined by * are phosphorothioate-linked, units joined directly phosphodiester-linked; [ ] holds rarer units or linkages, { } end groups; capitals alone tell only the bases. e = 2'-O-(2-methoxyethyl) (MOE); [5mC] = 5-methylcytosine; d = 2'-deoxy (DNA)
Record form. Attribute: Percent inhibition of human CETP mRNA. Fill in for each entry.
Answers are plain numbers, in %.

Okay, here is my list. What is Percent inhibition of human CETP mRNA for each of these?
1. ISIS 349498: 5-10-5 MOE gapmer CTGGACGGTAGTCACGATAT (e[5mC]*eT*eG*eG*eA*d[5mC]*dG*dG*dT*dA*dG*dT*d[5mC]*dA*d[5mC]*eG*eA*eT*eA*eT)
2. ISIS 349491: 5-10-5 MOE gapmer AGCCGCCGACAACCTCTTGG (eA*eG*e[5mC]*e[5mC]*eG*d[5mC]*d[5mC]*dG*dA*d[5mC]*dA*dA*d[5mC]*d[5mC]*dT*e[5mC]*eT*eT*eG*eG)
3. ISIS 349466: 5-10-5 MOE gapmer CCACAGACACGTTCTGAATG (e[5mC]*e[5mC]*eA*e[5mC]*eA*dG*dA*d[5mC]*dA*d[5mC]*dG*dT*dT*d[5mC]*dT*eG*eA*eA*eT*eG)
4. ISIS 349461: 5-10-5 MOE gapmer ATACTTGACTTGGCCAAGGA (eA*eT*eA*e[5mC]*eT*dT*dG*dA*d[5mC]*dT*dT*dG*dG*d[5mC]*d[5mC]*eA*eA*eG*eG*eA)
5. ISIS 349496: 5-10-5 MOE gapmer ACAGAATGTTGCTGGTCTGG (eA*e[5mC]*eA*eG*eA*dA*dT*dG*dT*dT*dG*d[5mC]*dT*dG*dG*eT*e[5mC]*eT*eG*eG)

Reply |
84
74
81
52
87

====

# System: human CETP mRNA
# Assay Protocol: Antisense inhibition of human CETP mRNA in primary hepatocytes from huCETP transgenic mice (Example 4)
# Type: cell-based, mouse
# Experimental Conditions: 100 nM, cytofectin, ~24 hours
Strand notation (5' to 3'): a small letter for the sugar, then the base; units joined by * are phosphorothioate-linked, units joined directly phosphodiester-linked; [ ] holds rarer units or linkages, { } end groups; capitals alone tell only the bases. e = 2'-O-(2-methoxyethyl) (MOE); [5mC] = 5-methylcytosine; d = 2'-deoxy (DNA)
Measured Metric: Percent inhibition of human CETP mRNA (%)
Answers are plain numbers, in %.

Substance: ISIS 349462: 5-10-5 MOE gapmer ATCTGGATGTTGTGCAACCC (eA*eT*e[5mC]*eT*eG*dG*dA*dT*dG*dT*dT*dG*dT*dG*d[5mC]*eA*eA*e[5mC]*e[5mC]*e[5mC])
Percent inhibition of human CETP mRNA / %: 60

Okay, here is my list. What is Percent inhibition of human CETP mRNA for each of these?
1. ISIS 349477: 5-10-5 MOE gapmer GATCTCTTTGCAGATCTGTC (eG*eA*eT*e[5mC]*eT*d[5mC]*dT*dT*dT*dG*d[5mC]*dA*dG*dA*dT*e[5mC]*eT*eG*eT*e[5mC])
2. ISIS 349510: 5-10-5 MOE gapmer TCTAGCTCAAGCTCTGGAGG (eT*e[5mC]*eT*eA*eG*d[5mC]*dT*d[5mC]*dA*dA*dG*d[5mC]*dT*d[5mC]*dT*eG*eG*eA*eG*eG)
3. ISIS 349454: 5-10-5 MOE gapmer GTGCCTTTGGAGCAGGCATG (eG*eT*eG*e[5mC]*e[5mC]*dT*dT*dT*dG*dG*dA*dG*d[5mC]*dA*dG*eG*e[5mC]*eA*eT*eG)
4. ISIS 349479: 5-10-5 MOE gapmer CTGGCAGCCCTTGTCTGGAC (e[5mC]*eT*eG*eG*e[5mC]*dA*dG*d[5mC]*d[5mC]*d[5mC]*dT*dT*dG*dT*d[5mC]*eT*eG*eG*eA*e[5mC])

Reply |
1: 44; 2: 65; 3: 69; 4: 80

====

Record form. Attribute: Body weights. Fill in for each entry.
# Assay Protocol: Body and organ weights of huCETP transgenic mice (Example 5)
# Assay type: in vivo
# Experimental Conditions: 50 mg/kg i.p. twice per week, Week 0
e = 2'-O-(2-methoxyethyl) (MOE); d = 2'-deoxy (DNA)
One number for each entry, in grams.

Please review the entries below; each comes with its answer.
Substance: ISIS 349511: 5-10-5 MOE gapmer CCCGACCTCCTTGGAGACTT (sugars from the 5' end e5 d10 e5, backbone and methylation of C not given here)
Body weights / grams: 19
//
Substance: ISIS 349517: 5-10-5 MOE gapmer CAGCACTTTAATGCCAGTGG (sugars from the 5' end e5 d10 e5, backbone and methylation of C not given here)
Body weights / grams: 25
//
Substance: ISIS 349515: 5-10-5 MOE gapmer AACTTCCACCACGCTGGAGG (sugars from the 5' end e5 d10 e5, backbone and methylation of C not given here)
Body weights / grams: 25

Lab note: next substance to report on.
Ask | Reported Body weights, substance ISIS 349512: 5-10-5 MOE gapmer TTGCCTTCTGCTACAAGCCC (sugars from the 5' end e5 d10 e5, backbone and methylation of C not given here) : ____
Reply | 19

====

# Tested on: human CETP mRNA
# Assay Protocol: Antisense inhibition of human CETP mRNA in SW872 liposarcoma cells (Example 1)
# Type: cell-based
# Experimental Conditions: 150 nM antisense oligonucleotide, lipofectin, ~24 hours, relative to untreated control cells
Strand notation (5' to 3'): a small letter for the sugar, then the base; units joined by * are phosphorothioate-linked, units joined directly phosphodiester-linked; [ ] holds rarer units or linkages, { } end groups; capitals alone tell only the bases. e = 2'-O-(2-methoxyethyl) (MOE); [5mC] = 5-methylcytosine; d = 2'-deoxy (DNA)
Record form. Attribute: % inhibition. Fill in for each entry.
Give bare numbers, in %.

Please review the entries below; each comes with its answer.
Substance: ISIS 349515: 5-10-5 MOE gapmer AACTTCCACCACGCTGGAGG (sugars from the 5' end e5 d10 e5, backbone and methylation of C not given here)
Units Of Measure: %
% inhibition: 53
//
Substance: ISIS 349489: 5-10-5 MOE gapmer GTTGAAGCCCCAGGTCTCCA (eG*eT*eT*eG*eA*dA*dG*d[5mC]*d[5mC]*d[5mC]*d[5mC]*dA*dG*dG*dT*e[5mC]*eT*e[5mC]*e[5mC]*eA)
Units Of Measure: %
% inhibition: 48

Lab note: next substance to report on.
Ask | Reported % inhibition, substance ISIS 349473: 5-10-5 MOE gapmer AGCAGCTTATGGAAAGACAG (eA*eG*e[5mC]*eA*eG*d[5mC]*dT*dT*dA*dT*dG*dG*dA*dA*dA*eG*eA*e[5mC]*eA*eG) : ____
Reply | 72

====

Record form. Attribute: Organ weights, Liver. Fill in for each entry.
# Assay Protocol: Body and organ weights of huCETP transgenic mice (Example 5)
# Format: in vivo
# Experimental Conditions: 50 mg/kg i.p. twice per week, week 6
e = 2'-O-(2-methoxyethyl) (MOE); d = 2'-deoxy (DNA)
Answers are plain numbers, in g.

Okay, here is my list. What is Organ weights, Liver for each of these?
1. ISIS 349515: 5-10-5 MOE gapmer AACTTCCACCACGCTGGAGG (sugars from the 5' end e5 d10 e5, backbone and methylation of C not given here)
2. ISIS 349511: 5-10-5 MOE gapmer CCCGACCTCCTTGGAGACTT (sugars from the 5' end e5 d10 e5, backbone and methylation of C not given here)
3. ISIS 349517: 5-10-5 MOE gapmer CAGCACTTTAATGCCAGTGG (sugars from the 5' end e5 d10 e5, backbone and methylation of C not given here)
4. ISIS 349512: 5-10-5 MOE gapmer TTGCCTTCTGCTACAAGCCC (sugars from the 5' end e5 d10 e5, backbone and methylation of C not given here)

Reply |
1.7
1.3
1.7
2.1

====

# System: human CETP mRNA
# Assay Protocol: Antisense inhibition of human CETP mRNA in primary hepatocytes from huCETP transgenic mice (Example 4)
# Assay type: cell-based, mouse
# Experimental Conditions: 100 nM, cytofectin, ~24 hours
Strand notation (5' to 3'): a small letter for the sugar, then the base; units joined by * are phosphorothioate-linked, units joined directly phosphodiester-linked; [ ] holds rarer units or linkages, { } end groups; capitals alone tell only the bases. e = 2'-O-(2-methoxyethyl) (MOE); [5mC] = 5-methylcytosine; d = 2'-deoxy (DNA)
Measured Metric: Percent inhibition of human CETP mRNA (%)
Give bare numbers, in %.

Substance: ISIS 349514: 5-10-5 MOE gapmer ACGCTGGAGGAGACACCAGG (eA*e[5mC]*eG*e[5mC]*eT*dG*dG*dA*dG*dG*dA*dG*dA*d[5mC]*dA*e[5mC]*e[5mC]*eA*eG*eG)
Study System: human CETP mRNA
Percent inhibition of human CETP mRNA / %: 84
//
Substance: ISIS 349457: 5-10-5 MOE gapmer TCTGGATCACCTTGGCAGTC (eT*e[5mC]*eT*eG*eG*dA*dT*d[5mC]*dA*d[5mC]*d[5mC]*dT*dT*dG*dG*e[5mC]*eA*eG*eT*e[5mC])
Study System: human CETP mRNA
Percent inhibition of human CETP mRNA / %: 42
//
Substance: ISIS 349489: 5-10-5 MOE gapmer GTTGAAGCCCCAGGTCTCCA (eG*eT*eT*eG*eA*dA*dG*d[5mC]*d[5mC]*d[5mC]*d[5mC]*dA*dG*dG*dT*e[5mC]*eT*e[5mC]*e[5mC]*eA)
Study System: human CETP mRNA
Percent inhibition of human CETP mRNA / %: 47
//
Substance: ISIS 349484: 5-10-5 MOE gapmer ACCAGAAGTACAGCATGCGG (eA*e[5mC]*e[5mC]*eA*eG*dA*dA*dG*dT*dA*d[5mC]*dA*dG*d[5mC]*dA*eT*eG*e[5mC]*eG*eG)
Study System: human CETP mRNA
Percent inhibition of human CETP mRNA / %: 34
//
Substance: ISIS 349497: 5-10-5 MOE gapmer CCTCTTCAAATGTGTAAGCT (e[5mC]*e[5mC]*eT*e[5mC]*eT*dT*d[5mC]*dA*dA*dA*dT*dG*dT*dG*dT*eA*eA*eG*e[5mC]*eT)
Study System: human CETP mRNA
Percent inhibition of human CETP mRNA / %: 71

Okay, here is my list. What is Percent inhibition of human CETP mRNA for each of these?
1. ISIS 349446: 5-10-5 MOE gapmer GGAACATGAGGCTCTTCCGG (eG*eG*eA*eA*e[5mC]*dA*dT*dG*dA*dG*dG*d[5mC]*dT*d[5mC]*dT*eT*e[5mC]*e[5mC]*eG*eG)
2. ISIS 349498: 5-10-5 MOE gapmer CTGGACGGTAGTCACGATAT (e[5mC]*eT*eG*eG*eA*d[5mC]*dG*dG*dT*dA*dG*dT*d[5mC]*dA*d[5mC]*eG*eA*eT*eA*eT)
3. ISIS 349452: 5-10-5 MOE gapmer CAGGACTGTGGCAGCCAGCA (e[5mC]*eA*eG*eG*eA*d[5mC]*dT*dG*dT*dG*dG*d[5mC]*dA*dG*d[5mC]*e[5mC]*eA*eG*e[5mC]*eA)
4. ISIS 349455: 5-10-5 MOE gapmer CGATGCCTGCCTCGTGCGAG (e[5mC]*eG*eA*eT*eG*d[5mC]*d[5mC]*dT*dG*d[5mC]*d[5mC]*dT*d[5mC]*dG*dT*eG*e[5mC]*eG*eA*eG)
5. ISIS 349492: 5-10-5 MOE gapmer GGCATCTTGAGGCAGTGGAC (antisense eG*eG*e[5mC]*eA*eT*d[5mC]*dT*dT*dG*dA*dG*dG*d[5mC]*dA*dG*eT*eG*eG*eA*e[5mC])

Reply |
[34, 76, 60, 25, 59]

Data provenance: patent US20130053430A1
